- Test system: c-Abl (mouse)
- Assay comment: phosphorylation enrichment, bacterial display (enrichment ratio); higher = better substrate or ligand; peptides without Tyr show the background;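 further: 11-residue human phosphosite peptides and single-mutation variants displayed on the E. coli surface, counted by deep sequencing, each peptide's frequency after selection divided by its frequency in the unselected input library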;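 further: frequency after pTyr selection over input frequency; kinase dosed for 20-30% of maximal phosphorylation in three min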
I'd be grateful if you could share measured phosphorylation enrichment for these entries.
Answers are plain numbers.

Consider the following illustrative entries.
1) YCRHNYGVGES [HLA-DRB1_Y112_V115G] : 0.602
2) AWVARYIFKRL [LPCAT3_Y348] : 0.748
3) ASMAKYYASEI [ACADSB_Y372] : 0.717
4) ERFAFYRDSPR [FOXE3_Y108] : 0.625

For every item below, please supply its phosphorylation enrichment.
1. QAFSWYQHQRA [NDST1_Y714_R709Q_YF]
2. NALVQYQEMEK [BBS4_Y395_A393V]
3. PGQRVYVVAER [SHH_Y316]
4. VDLSKYITTIA [FAS_Y232]
5. IKELTYQMEED [MYH7_Y1852_T1854M]

1. 0.731
2. 0.62
3. 0.503
4. 0.513
5. 0.667

# map each sequence to its phosphorylation enrichment
1. IVRSLYKDLED [VHL_Y185_E186K]
2. VQQVIYATGAL [MYH7_Y422]
3. FRASFYRRGDR [LTK_Y677_YF]
4. ALPGEYIPTVF [RAC1_Y32_F28L]
5. VHLFAYDWISI [BEST1_Y227_G222V_YF]
6. KELSNYKHLTL [SLIT2_Y776]
7. IGRHAYGDQYR [IDH1_Y135]

1: 0.691; 2: 25.3; 3: 0.634; 4: 0.7; 5: 0.69; 6: 0.522; 7: 0.462

Consider the following items and state reported phosphorylation enrichment for each.
1. TFRPPYYHRDC [HGD_Y333_N337D]
2. HNLDYYKQTTN [FGFR3_Y648_K650Q]
3. IGCHAYGDQYR [IDH1_Y135_R132C]
4. FAREGYSALPQ [SARS2_Y52_YF]
5. FTGNTYRVGDT [FN1_Y106_YF]
6. IPGVEYLVSII [TNC_Y1775]
7. CCNHPYLINGA [CHD7_Y1256]

1: 0.639; 2: 0.793; 3: 0.796; 4: 0.564; 5: 0.479; 6: 0.664; 7: 0.538

----------
- System: AncSZ
- Assay comment: phosphorylation enrichment, bacterial display (enrichment ratio); higher = better substrate or ligand; peptides without Tyr show the background
Observation type: phosphorylation enrichment
One number for each entry.

Example results:
1) MSLRSYGSWEG [APC_Y96_R99W] : 1.32
2) GSCQEYTGAPY [NAXD_Y85_G81S] : 1.14
3) KKILCYIQGGS [HYDIN_Y4610_N4606K] : 1.31
4) IHETTYKSIMK [ACTA1_Y281_N282K] : 0.364
5) FPQARYHWLVL [APTX_Y214_K211Q_YF] : 0.913

Could you please provide reported phosphorylation enrichment for FSAGTYPRLEE [SYCN_Y108] ? Thanks!
0.765

----------
- Assay system: FGFR3 (UniProt P22607)
- Sequence (P22607 whole entry, looked up): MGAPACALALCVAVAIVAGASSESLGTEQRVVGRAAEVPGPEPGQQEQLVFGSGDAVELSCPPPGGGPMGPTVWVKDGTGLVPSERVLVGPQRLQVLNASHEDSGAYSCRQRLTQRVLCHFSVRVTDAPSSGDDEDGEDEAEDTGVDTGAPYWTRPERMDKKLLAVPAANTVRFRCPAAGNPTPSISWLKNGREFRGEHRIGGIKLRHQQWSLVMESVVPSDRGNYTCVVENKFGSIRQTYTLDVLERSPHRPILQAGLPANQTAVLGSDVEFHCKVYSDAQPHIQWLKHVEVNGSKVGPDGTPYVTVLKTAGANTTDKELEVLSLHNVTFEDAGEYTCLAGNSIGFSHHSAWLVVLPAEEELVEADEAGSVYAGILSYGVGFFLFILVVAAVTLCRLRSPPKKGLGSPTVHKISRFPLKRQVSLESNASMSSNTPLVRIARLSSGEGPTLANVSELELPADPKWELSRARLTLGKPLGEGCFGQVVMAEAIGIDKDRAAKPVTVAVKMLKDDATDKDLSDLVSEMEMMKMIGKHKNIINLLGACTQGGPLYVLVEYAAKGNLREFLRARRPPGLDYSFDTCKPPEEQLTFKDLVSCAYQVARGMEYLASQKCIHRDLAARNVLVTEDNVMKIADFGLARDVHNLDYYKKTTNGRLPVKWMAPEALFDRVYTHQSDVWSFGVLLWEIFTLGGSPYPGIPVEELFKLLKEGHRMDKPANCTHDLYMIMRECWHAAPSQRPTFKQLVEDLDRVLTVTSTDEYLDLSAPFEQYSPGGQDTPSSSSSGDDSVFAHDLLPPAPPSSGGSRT
- Assay comment: phosphorylation enrichment, bacterial display (enrichment ratio); higher = better substrate or ligand; peptides without Tyr show the background
Entry flag: Yes if phosphorylation enrichment reaches 0.7; No if it does not.

// known answers, use as guide
1. MLEVPYVDRNS [F10_Y384] : No
2. EVTRLYGSVCD [TC2N_Y154_K151T] : Yes
3. IYKAAYFGVYD [SLC25A4_Y191_R188K] : Yes
4. TAALWYIYLHT [ENG_Y612_S615L] : Yes
5. VNKIYYPDFIV [LIG3_Y768] : Yes

API: above_or_equal(metric=phosphorylation enrichment, cutoff=0.7) for item GYRPVYSEDEQ [CHST6_Y362]
Yes

Test whether the sequence AGRSGYDNREI [BCL2_Y9_T7S] records phosphorylation enrichment of 0.7 or higher.
No

API: above_or_equal(metric=phosphorylation enrichment, cutoff=0.7) for item HNLPIYEGYAL [ACTA1_Y168_V165L]
No

Threshold query (phosphorylation enrichment >= 0.7) on KKILCYIQGGS [HYDIN_Y4610_N4606K]
Yes

Reported phosphorylation enrichment at or above 0.7? CFTGKYTLPPG [HSPB1_Y142_R140G]
Yes

----------
- Assay system: Hck (UniProt P08631)
- Sequence (P08631 whole entry, looked up): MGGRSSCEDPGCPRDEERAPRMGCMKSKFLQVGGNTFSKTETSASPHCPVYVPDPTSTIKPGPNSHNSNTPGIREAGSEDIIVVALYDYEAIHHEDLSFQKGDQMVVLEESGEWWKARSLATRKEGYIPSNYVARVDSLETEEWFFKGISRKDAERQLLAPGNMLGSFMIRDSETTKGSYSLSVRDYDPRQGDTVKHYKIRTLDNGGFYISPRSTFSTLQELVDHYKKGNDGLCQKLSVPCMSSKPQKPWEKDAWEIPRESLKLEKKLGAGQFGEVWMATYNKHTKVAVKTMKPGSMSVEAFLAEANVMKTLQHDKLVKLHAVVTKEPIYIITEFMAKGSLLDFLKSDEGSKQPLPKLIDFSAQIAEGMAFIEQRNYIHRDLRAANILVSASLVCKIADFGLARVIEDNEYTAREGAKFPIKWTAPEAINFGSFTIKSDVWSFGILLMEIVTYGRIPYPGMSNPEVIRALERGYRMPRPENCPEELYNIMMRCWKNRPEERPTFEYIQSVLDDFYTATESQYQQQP
- Assay comment: phosphorylation enrichment, bacterial display (enrichment ratio); higher = better substrate or ligand; peptides without Tyr show the background
Please go through the items and note down their phosphorylation enrichment.
Give bare numbers.

// batch mode: one phosphorylation enrichment value per listed entry
1. FEPWVYSFSFE [PRKDC_Y647_YF]
2. DPLLTYRFPPK [LMNA_Y481]
3. AGTILYHAHLD [ASS1_Y291]
4. MDFRSYPHEFG [RBM10_Y44_R46H_YF]
5. RRIHSNRGHLW [VHL_Y112_Y112N]
6. ALAPKYHGGGG [HBB_Y146_H144P]
7. ARQEEYSAMRD [KRAS_Y64_G60R]
8. DLDATYRPMYS [JUP_Y701_M697L]

[3.01, 0.43, 0.523, 0.335, 0.709, 0.348, 0.488, 0.6]

Below are some sequences; for each one, tell me its phosphorylation enrichment.
1. EFITRYIDSLK [PSMA7_Y110_A112D_YF]
2. QADVTYVNTQL [MERTK_Y872_I871T]
3. SFTDPYAQPPL [KMT2D_Y2378_YF]
4. MPAVTYTLAMR [MEGF10_Y895_P897L]
5. TGFRPYVCPFD [YY1_Y383_D380Y_YF]
6. FTGNTYRVGDT [FN1_Y106_YF]
7. VVAHHYSFAPD [TNS3_Y601_Q600H]

1: 0.501; 2: 0.518; 3: 0.502; 4: 0.514; 5: 0.691; 6: 0.293; 7: 0.453

----------
- Assay system: FGFR3 (UniProt P22607)
- Assay comment: phosphorylation enrichment, bacterial display (enrichment ratio); higher = better substrate or ligand; peptides without Tyr show the background
Hi there, I'd appreciate the recorded phosphorylation enrichment for every entry that follows.

1) FNDSAYNQQLI [ZPLD1_Y198_T197A_YF] : 0.451

Each sequence below has a reported value. Please supply its phosphorylation enrichment.
1. ASLEAYCKHKY [RXRA_Y403]
2. MEYAKYGSLRG [RET_Y809_V804M]
3. AACQHYGVHTC [NR4A2_Y275_R278H]
4. LIDGYYRLTED [JAK2_Y373_A377E]
5. WIGRKYKKVRF [F8_Y442_R437W]
6. DVLPEYKLQAP [KCNH2_Y388]

1. 0.658
2. 0.458
3. 0.585
4. 1.57
5. 0.54
6. 0.728

----------
- Assay system: FGFR1 (UniProt P11362)
- Sequence (P11362 whole entry, looked up): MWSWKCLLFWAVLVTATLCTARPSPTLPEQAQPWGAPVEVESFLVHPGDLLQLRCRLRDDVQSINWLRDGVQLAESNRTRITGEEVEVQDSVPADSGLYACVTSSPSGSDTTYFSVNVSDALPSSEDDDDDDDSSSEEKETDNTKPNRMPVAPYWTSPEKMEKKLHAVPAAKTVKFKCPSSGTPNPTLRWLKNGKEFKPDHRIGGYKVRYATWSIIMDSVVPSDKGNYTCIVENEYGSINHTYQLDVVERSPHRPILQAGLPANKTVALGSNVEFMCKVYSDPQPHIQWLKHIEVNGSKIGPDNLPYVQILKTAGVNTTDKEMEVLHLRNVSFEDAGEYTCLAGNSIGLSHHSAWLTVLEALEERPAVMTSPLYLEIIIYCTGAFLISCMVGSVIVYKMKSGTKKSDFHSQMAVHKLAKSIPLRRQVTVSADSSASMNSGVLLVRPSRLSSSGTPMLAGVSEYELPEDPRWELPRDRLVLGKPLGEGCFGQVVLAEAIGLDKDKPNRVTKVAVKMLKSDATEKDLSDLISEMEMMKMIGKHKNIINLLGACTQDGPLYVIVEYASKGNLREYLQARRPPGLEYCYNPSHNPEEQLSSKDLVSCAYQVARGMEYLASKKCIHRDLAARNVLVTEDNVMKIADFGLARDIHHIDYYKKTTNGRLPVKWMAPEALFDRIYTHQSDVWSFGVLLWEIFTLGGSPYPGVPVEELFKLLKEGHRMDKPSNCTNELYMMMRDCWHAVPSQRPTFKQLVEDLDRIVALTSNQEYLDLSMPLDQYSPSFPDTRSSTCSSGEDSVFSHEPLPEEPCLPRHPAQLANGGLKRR
- Assay comment: phosphorylation enrichment, bacterial display (enrichment ratio); higher = better substrate or ligand; peptides without Tyr show the background
Please provide measured phosphorylation enrichment for the entries that follow.
Numbers only.

1) EEQKKYFNAMK [SCN5A_Y1494_YF] : 0.421
2) VIIVLYFSLWK [SLC6A2_Y249_V245I] : 0.462
3) HRDSSYYWEIE [RAF1_Y340_Q335H] : 6.05
4) LQFKNYQQLFD [MAN2A1_Y442] : 0.453
5) DLDATYRPMYS [JUP_Y701_M697L] : 0.383
6) VAVTKYCKEEL [ATP7B_Y1078] : 0.498
7) GPTLSYGRDGR [MATR3_Y158] : 0.363
8) TGFRPYVCPFD [YY1_Y383_D380Y_YF] : 1.1

For each of the items listed, what is its phosphorylation enrichment?
1. PGQRVYVVAER [SHH_Y316]
2. MIRSTYALGGL [CPS1_Y590_A589T]
3. VNYGAYINNFK [GLB1_Y488_D491N]

0.522
0.774
0.453

Hello, I would appreciate it if you could give phosphorylation enrichment for each entry below.
1. YSTSPYLLEAA [BRIP1_Y921]
2. SRGRQYQELPR [KCNH2_Y1009]
3. FGLTLYPNSRE [MEP1A_Y472_V469L]

1. 0.551
2. 0.4
3. 0.682

----------
- Assay system: MERTK (UniProt Q12866)
- Sequence (Q12866 whole entry, looked up): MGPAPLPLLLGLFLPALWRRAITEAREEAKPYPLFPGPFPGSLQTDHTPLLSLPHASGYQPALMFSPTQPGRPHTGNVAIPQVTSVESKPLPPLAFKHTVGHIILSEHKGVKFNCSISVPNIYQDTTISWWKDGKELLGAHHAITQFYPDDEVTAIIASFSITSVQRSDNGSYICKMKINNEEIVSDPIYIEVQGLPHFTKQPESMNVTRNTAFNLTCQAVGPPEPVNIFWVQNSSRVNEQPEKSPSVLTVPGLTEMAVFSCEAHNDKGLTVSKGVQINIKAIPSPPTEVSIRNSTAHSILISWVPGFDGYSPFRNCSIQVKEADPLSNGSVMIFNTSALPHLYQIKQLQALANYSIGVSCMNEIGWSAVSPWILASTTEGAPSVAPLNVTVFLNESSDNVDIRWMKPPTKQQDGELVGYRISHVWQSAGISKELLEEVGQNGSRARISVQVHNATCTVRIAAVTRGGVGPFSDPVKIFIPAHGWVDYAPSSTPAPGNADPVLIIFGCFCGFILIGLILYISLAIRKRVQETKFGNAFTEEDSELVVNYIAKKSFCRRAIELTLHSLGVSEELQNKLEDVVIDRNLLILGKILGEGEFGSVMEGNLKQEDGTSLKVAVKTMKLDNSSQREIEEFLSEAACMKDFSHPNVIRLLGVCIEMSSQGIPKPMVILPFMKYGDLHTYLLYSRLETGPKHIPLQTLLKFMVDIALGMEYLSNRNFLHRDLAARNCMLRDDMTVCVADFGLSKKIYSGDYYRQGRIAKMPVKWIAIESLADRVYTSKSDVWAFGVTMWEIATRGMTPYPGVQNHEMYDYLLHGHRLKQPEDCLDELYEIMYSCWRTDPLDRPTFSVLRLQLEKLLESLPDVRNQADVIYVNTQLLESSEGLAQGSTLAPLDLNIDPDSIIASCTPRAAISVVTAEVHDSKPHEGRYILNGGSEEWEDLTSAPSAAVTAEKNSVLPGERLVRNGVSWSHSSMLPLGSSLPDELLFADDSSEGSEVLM
- Assay comment: phosphorylation enrichment, bacterial display (enrichment ratio); higher = better substrate or ligand; peptides without Tyr show the background
Threshold rule: phosphorylation enrichment greater than or equal to 0.4 is t; below that, f.

Please review the following examples before continuing.
1. EGDGVYTLNNK [HP_Y125_E130K] : f
2. PEVRRHVLPLN [RPE65_Y368_Y368H] : t
3. PESIMYRKFTT [NTRK3_Y744] : t

Now consider the entry below.
Is it the case that LRVHSYKSMQP [DRC7_Y516] has phosphorylation enrichment reaching or exceeding 0.4?
t
